Data provenance is the kinase profiling compilation of Christmann-Franck et al. (2016).

# Lookup of reported kinase still bound, per cent of control keyed by entry
- tested.system: TYK2 JH2 pseudokinase (human) (UniProt P29597)
- Sequence (P29597 whole entry, looked up): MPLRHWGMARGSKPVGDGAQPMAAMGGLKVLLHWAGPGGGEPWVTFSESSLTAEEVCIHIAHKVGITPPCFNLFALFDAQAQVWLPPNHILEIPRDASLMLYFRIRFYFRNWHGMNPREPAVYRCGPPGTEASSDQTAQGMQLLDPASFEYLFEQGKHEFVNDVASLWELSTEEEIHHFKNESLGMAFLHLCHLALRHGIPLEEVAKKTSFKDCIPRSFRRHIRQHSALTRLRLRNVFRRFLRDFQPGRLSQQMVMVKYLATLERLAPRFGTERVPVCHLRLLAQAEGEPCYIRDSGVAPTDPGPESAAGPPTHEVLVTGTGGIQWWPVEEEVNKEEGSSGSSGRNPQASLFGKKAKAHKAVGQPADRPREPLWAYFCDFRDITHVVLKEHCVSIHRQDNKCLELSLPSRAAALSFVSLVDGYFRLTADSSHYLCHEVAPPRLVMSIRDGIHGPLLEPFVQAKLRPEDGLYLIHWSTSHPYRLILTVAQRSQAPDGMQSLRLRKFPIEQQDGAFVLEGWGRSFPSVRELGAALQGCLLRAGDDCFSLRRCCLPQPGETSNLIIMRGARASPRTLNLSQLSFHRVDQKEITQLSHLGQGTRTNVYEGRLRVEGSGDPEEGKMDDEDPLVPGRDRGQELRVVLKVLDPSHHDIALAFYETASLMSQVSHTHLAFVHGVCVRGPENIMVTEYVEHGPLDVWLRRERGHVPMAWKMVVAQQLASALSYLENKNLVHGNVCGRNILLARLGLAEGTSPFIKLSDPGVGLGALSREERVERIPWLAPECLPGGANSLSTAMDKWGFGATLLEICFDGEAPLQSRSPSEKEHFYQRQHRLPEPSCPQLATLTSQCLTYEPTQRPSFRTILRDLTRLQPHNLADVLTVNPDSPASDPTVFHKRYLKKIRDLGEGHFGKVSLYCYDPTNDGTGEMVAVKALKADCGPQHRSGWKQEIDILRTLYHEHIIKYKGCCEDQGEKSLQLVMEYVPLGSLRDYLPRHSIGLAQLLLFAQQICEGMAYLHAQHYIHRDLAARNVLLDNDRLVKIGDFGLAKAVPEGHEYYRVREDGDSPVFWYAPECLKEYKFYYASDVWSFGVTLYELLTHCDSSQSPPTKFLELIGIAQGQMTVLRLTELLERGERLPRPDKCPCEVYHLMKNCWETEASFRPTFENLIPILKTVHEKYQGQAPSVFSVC
- assay.remarks: KINOMEscan competition binding
- assay.setup: compound 10.0 µM

{"columns": ["compound", "kinase still bound, per cent of control (%)"],
 "data": [
  ["CN(C)C/C=C/C(=O)Nc1cccc(Nc2ncc3c(n2)N(C)c2ccccc2C(=O)N3C)c1", 18],
  ["COc1cc(N2CCN(C)CC2)ccc1Nc1nc(N)c(C(=O)c2c(Cl)cccc2Cl)s1", 60],
  ["C=CC(=O)Nc1cccc(Oc2nc(Nc3ccc(N4CCN(C)CC4)cc3OC)ncc2Cl)c1", 100],
  ["O=C(NOC[C@H](O)CO)c1ccc(F)c(F)c1Nc1ccc(I)cc1F", 100],
  ["COc1cc(C(=O)NC2CCN(C)CC2)ccc1Nc1ncc2c(n1)N(C1CCCC1)C(C)CC(=O)N2C (stereo not given)", 100],
  ["O=C(O)c1ccc(Nc2ncc3c(n2)-c2ccc(Cl)cc2C(c2c(F)cccc2F)=NC3)cc1", 100],
  ["CCOc1cc2ncc(C#N)c(Nc3ccc(OCc4ccccn4)c(Cl)c3)c2cc1NC(=O)/C=C/CN(C)C", 99],
  ["C=CC(=O)Nc1cc(NC(=O)c2ccc(C)c(NC(=O)c3ccno3)c2)cc(C(F)(F)F)c1", 100],
  ["Cc1ccc(C(=O)Nc2cccc(C(F)(F)F)c2)cc1Nc1cncc(C(N)=O)c1", 100],
  ["O=C1Nc2ccc(I)cc2/C1=C/c1cc(Br)c(O)c(Br)c1", 100],
  ["Cn1c(=O)n(-c2ccc(C(C)(C)C#N)cc2)c2c3cc(-c4cnc5ccccc5c4)ccc3ncc21", 100],
  ["CC[C@@H]1C(=O)N(C)c2cnc(Nc3ccc(C(=O)NC4CCN(C)CC4)cc3OC)nc2N1C1CCCC1", 100],
  ["C[C@@H](Oc1cc(-n2cnc3ccc(CN4CCN(C)CC4)cc32)sc1C(N)=O)c1ccccc1C(F)(F)F", 100],
  ["Nc1ccc(-c2ccc3ncc4ccc(=O)n(-c5cccc(C(F)(F)F)c5)c4c3c2)cn1", 6.3],
  ["N#Cc1c(NC(=O)c2cccc3ccccc23)sc2c1CCCC2", 100],
  ["CCC(=O)N1CCN(c2ccc(-n3c(=O)ccc4cnc5ccc(-c6cnc7ccccc7c6)cc5c43)cc2C(F)(F)F)CC1", 55],
  ["Cc1ccc2nc(NCCN)c3ncc(C)n3c2c1", 15],
  ["O=C(NC1CC1)c1cccc(-c2ccc3c(NC(=O)C4CC4)n[nH]c3c2)c1", 32],
  ["OCCCNc1cc(-c2ccnc(Nc3cccc(Cl)c3)n2)ccn1", 100],
  ["COc1cc(C(=O)NC2CCN(C)CC2)ccc1Nc1ncc2c(n1)N(C1CCCC1)CCC(=O)N2C(C)C", 100],
  ["Cc1ccc(NC(=O)c2cccc(C(C)(C)C#N)c2)cc1Nc1ccc2ncn(C)c(=O)c2c1", 100],
  ["Cc1cc([C@@H](C)Nc2ccccc2C(=O)O)c2nc(N3CCOCC3)cc(=O)n2c1", 100],
  ["CCN1CCN(Cc2ccc(Nc3ncc4c(n3)N(C)c3ccccc3C(=O)N4C)cc2C(F)(F)F)CC1", 13],
  ["CCCS(=O)(=O)Nc1ccc(F)c(C(=O)c2c[nH]c3ncc(-c4ccc(Cl)cc4)cc23)c1F", 100],
  ["C=CC(=O)Nc1cccc(Nc2nc(N[C@H]3CC[C@H](N(C)C)CC3)nc3c2ncn3C(C)C)c1", 100]
]}

====

# Lookup of reported kinase still bound, per cent of control keyed by entry
- tested.system: RPS6KA4 KD2 (human) (UniProt O75676)
- Sequence (O75676 whole entry, looked up): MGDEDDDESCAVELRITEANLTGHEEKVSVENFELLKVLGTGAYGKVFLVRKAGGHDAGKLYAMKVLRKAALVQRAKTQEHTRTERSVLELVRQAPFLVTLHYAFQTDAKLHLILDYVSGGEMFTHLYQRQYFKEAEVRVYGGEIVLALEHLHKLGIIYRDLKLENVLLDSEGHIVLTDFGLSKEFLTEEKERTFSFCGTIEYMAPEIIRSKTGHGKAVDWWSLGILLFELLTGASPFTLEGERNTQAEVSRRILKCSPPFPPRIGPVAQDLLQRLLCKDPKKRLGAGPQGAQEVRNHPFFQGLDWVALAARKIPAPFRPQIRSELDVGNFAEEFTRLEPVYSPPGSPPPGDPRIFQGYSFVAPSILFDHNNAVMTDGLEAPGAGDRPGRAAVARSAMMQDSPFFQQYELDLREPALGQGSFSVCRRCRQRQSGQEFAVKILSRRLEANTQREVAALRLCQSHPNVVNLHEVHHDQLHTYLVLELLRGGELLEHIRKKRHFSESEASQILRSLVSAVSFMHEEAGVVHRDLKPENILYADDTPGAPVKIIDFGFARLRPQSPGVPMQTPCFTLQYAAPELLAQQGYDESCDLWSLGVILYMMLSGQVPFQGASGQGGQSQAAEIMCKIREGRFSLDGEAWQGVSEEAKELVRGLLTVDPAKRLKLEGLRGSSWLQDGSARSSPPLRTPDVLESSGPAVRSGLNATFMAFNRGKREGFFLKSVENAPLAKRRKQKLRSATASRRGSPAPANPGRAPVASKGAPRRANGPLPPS
- assay.remarks: KINOMEscan competition binding
- assay.setup: compound 10.0 µM
measured.endpoint: kinase still bound, per cent of control

{"columns": ["sample.smiles", "measured.endpoint", "measured.value"],
 "data": [
  ["COc1cc(N2CCN(C)CC2)ccc1Nc1nc(N)c(C(=O)c2c(Cl)cccc2Cl)s1", "kinase still bound, per cent of control", "100%"],
  ["C=CC(=O)Nc1cccc(Nc2nc(N[C@H]3CC[C@H](N(C)C)CC3)nc3c2ncn3C(C)C)c1", "kinase still bound, per cent of control", "52%"],
  ["CCOc1cc2ncc(C#N)c(Nc3ccc(OCc4ccccn4)c(Cl)c3)c2cc1NC(=O)/C=C/CN(C)C", "kinase still bound, per cent of control", "94%"],
  ["C[C@@H](Oc1cc(-n2cnc3ccc(CN4CCN(C)CC4)cc32)sc1C(N)=O)c1ccccc1C(F)(F)F", "kinase still bound, per cent of control", "0.55%"]
]}

====

- tested.system: TEC (human)
- assay.remarks: KINOMEscan competition binding
- assay.setup: compound 10.0 µM
measured.endpoint: kinase still bound, per cent of control

{"columns": ["compound", "measured.value"],
 "data": [
  ["CN(C)C/C=C/C(=O)Nc1cccc(Nc2ncc3c(n2)N(C)c2ccccc2C(=O)N3C)c1", "97%"],
  ["C=CC(=O)Nc1cccc(Nc2nc(N[C@H]3CC[C@H](N(C)C)CC3)nc3c2ncn3C(C)C)c1", "100%"],
  ["OCCCNc1cc(-c2ccnc(Nc3cccc(Cl)c3)n2)ccn1", "100%"],
  ["COc1cc(C(=O)NC2CCN(C)CC2)ccc1Nc1ncc2c(n1)N(C1CCCC1)C(C)CC(=O)N2C (centres undefined)", "100%"],
  ["CC[C@@H]1C(=O)N(C)c2cnc(Nc3ccc(C(=O)NC4CCN(C)CC4)cc3OC)nc2N1C1CCCC1", "100%"],
  ["CCN1CCN(Cc2ccc(Nc3ncc4c(n3)N(C)c3ccccc3C(=O)N4C)cc2C(F)(F)F)CC1", "99%"],
  ["CCOc1cc2ncc(C#N)c(Nc3ccc(OCc4ccccn4)c(Cl)c3)c2cc1NC(=O)/C=C/CN(C)C", "73%"],
  ["O=C1Nc2ccc(I)cc2/C1=C/c1cc(Br)c(O)c(Br)c1", "100%"],
  ["COc1cc(C(=O)NC2CCN(C)CC2)ccc1Nc1ncc2c(n1)N(C1CCCC1)CCC(=O)N2C(C)C", "100%"]
]}

====

- tested.system: MAP3K15 (human)
- assay.remarks: KINOMEscan competition binding
- assay.setup: compound 10.0 µM

{"columns": ["sample.smiles", "kinase still bound, per cent of control (%)"],
 "data": [
  ["N#Cc1c(NC(=O)c2cccc3ccccc23)sc2c1CCCC2", 100],
  ["Nc1ccc(-c2ccc3ncc4ccc(=O)n(-c5cccc(C(F)(F)F)c5)c4c3c2)cn1", 100],
  ["O=C1Nc2ccc(I)cc2/C1=C/c1cc(Br)c(O)c(Br)c1", 80],
  ["Cn1c(=O)n(-c2ccc(C(C)(C)C#N)cc2)c2c3cc(-c4cnc5ccccc5c4)ccc3ncc21", 100],
  ["CCCS(=O)(=O)Nc1ccc(F)c(C(=O)c2c[nH]c3ncc(-c4ccc(Cl)cc4)cc23)c1F", 100],
  ["COc1cc(N2CCN(C)CC2)ccc1Nc1nc(N)c(C(=O)c2c(Cl)cccc2Cl)s1", 51],
  ["C=CC(=O)Nc1cc(NC(=O)c2ccc(C)c(NC(=O)c3ccno3)c2)cc(C(F)(F)F)c1", 77],
  ["COc1cc(C(=O)NC2CCN(C)CC2)ccc1Nc1ncc2c(n1)N(C1CCCC1)CCC(=O)N2C(C)C", 100],
  ["O=C(O)c1ccc(Nc2ncc3c(n2)-c2ccc(Cl)cc2C(c2c(F)cccc2F)=NC3)cc1", 82],
  ["Cc1ccc(NC(=O)c2cccc(C(C)(C)C#N)c2)cc1Nc1ccc2ncn(C)c(=O)c2c1", 100],
  ["CCN1CCN(Cc2ccc(Nc3ncc4c(n3)N(C)c3ccccc3C(=O)N4C)cc2C(F)(F)F)CC1", 74],
  ["CCOc1cc2ncc(C#N)c(Nc3ccc(OCc4ccccn4)c(Cl)c3)c2cc1NC(=O)/C=C/CN(C)C", 100],
  ["C=CC(=O)Nc1cccc(Nc2nc(N[C@H]3CC[C@H](N(C)C)CC3)nc3c2ncn3C(C)C)c1", 66],
  ["Cc1ccc2nc(NCCN)c3ncc(C)n3c2c1", 100],
  ["O=C(NC1CC1)c1cccc(-c2ccc3c(NC(=O)C4CC4)n[nH]c3c2)c1", 100],
  ["Cc1cc([C@@H](C)Nc2ccccc2C(=O)O)c2nc(N3CCOCC3)cc(=O)n2c1", 87],
  ["CCC(=O)N1CCN(c2ccc(-n3c(=O)ccc4cnc5ccc(-c6cnc7ccccc7c6)cc5c43)cc2C(F)(F)F)CC1", 100],
  ["C[C@@H](Oc1cc(-n2cnc3ccc(CN4CCN(C)CC4)cc32)sc1C(N)=O)c1ccccc1C(F)(F)F", 24],
  ["O=C(NOC[C@H](O)CO)c1ccc(F)c(F)c1Nc1ccc(I)cc1F", 100],
  ["OCCCNc1cc(-c2ccnc(Nc3cccc(Cl)c3)n2)ccn1", 100],
  ["CN(C)C/C=C/C(=O)Nc1cccc(Nc2ncc3c(n2)N(C)c2ccccc2C(=O)N3C)c1", 69]
]}
